- Tested on: foxtail, green (green foxtail, Setaria viridis)
- TEST_DETAILS: Test A postemergence, visual injury rating 0-100
- Assay type: in vivo
- TEST_CONTEXT: 125 g ai/ha, 0 to 100 scale
- Source text: […]
I'd be grateful if you could share measured Foxtail, Green plant response rating for these entries.
Reply briefly: the number, and no unit.

Req: Reported Foxtail, Green plant response rating for CC1=[N+]([O-])C(C(=O)Nc2cccc(F)c2F)C(c2cccc(Br)c2)C1 (racemic) [Compound 19] : what is it?
Resp: 30

Req: Reported Foxtail, Green plant response rating for CC1=[N+]([O-])C(C(=O)Nc2cccc(F)c2F)C(c2ccc(Br)cc2)C1 (racemic) [Compound 20] : what is it?
Resp: 0

Req: Reported Foxtail, Green plant response rating for CC1=[N+]([O-])C(C(=O)Nc2cccc(C#N)c2F)C(c2ccc(C(F)(F)F)cc2)C1 (racemic) [Compound 28] : what is it?
Resp: 30

Req: Reported Foxtail, Green plant response rating for CC1=[N+]([O-])C(C(=O)Nc2ccc(F)cc2F)C(c2ccc(C(F)(F)F)cc2)C1 (racemic) [Compound 46] : what is it?
Resp: 40

Req: Reported Foxtail, Green plant response rating for CC1=[N+]([O-])C(C(=O)Nc2cccc(F)c2F)C(c2ccccc2F)C1 (racemic) [Compound 21] : what is it?
Resp: 0

Req: Reported Foxtail, Green plant response rating for CC1=[N+]([O-])[C@H](C(=O)Nc2cccc(F)c2F)[C@@H](c2ccc(C)cc2)C1 [Compound 42] : what is it?
Resp: 90

Req: Reported Foxtail, Green plant response rating for CC1=[N+]([O-])C(C(=O)Nc2ccccc2)C(c2ccc(F)c(F)c2)C1 (racemic) [Compound 17] : what is it?
Resp: 20

Req: Reported Foxtail, Green plant response rating for CC1=[N+]([O-])C(C(=O)Nc2cccnc2F)C(c2ccc(C(F)(F)F)cc2)C1 (racemic) [Compound 41] : what is it?
Resp: 40

Req: Reported Foxtail, Green plant response rating for CC1=[N+]([O-])C(C(=O)Nc2cccc(F)c2F)C(c2ccc(C#N)cc2)C1 (racemic) [Compound 22] : what is it?
Resp: 0
